Biological target: human FXR (NR1H4) (Homo sapiens (Human))
Sequence (Q96RI1 whole entry, the tested form may be a part): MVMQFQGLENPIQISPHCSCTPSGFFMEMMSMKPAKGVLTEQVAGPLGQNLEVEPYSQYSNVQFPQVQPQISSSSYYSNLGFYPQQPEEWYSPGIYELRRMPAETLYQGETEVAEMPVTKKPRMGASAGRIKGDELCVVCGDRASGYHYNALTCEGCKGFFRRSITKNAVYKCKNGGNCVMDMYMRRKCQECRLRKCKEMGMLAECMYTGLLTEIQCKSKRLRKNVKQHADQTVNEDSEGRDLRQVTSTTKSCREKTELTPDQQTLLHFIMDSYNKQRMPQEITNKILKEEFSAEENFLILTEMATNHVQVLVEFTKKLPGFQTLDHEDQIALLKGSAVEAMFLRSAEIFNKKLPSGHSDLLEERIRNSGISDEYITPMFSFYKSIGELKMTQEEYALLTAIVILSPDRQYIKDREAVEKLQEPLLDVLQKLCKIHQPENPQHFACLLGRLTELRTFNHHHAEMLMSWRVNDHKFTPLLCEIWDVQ
Assay: Human FXR (NR1H4) Assay (Gal4 promoter driven luciferase reporter, Indigo Bioscience kit IB00601)
Format: cell-based
Conditions: efficacy normalized to CDCA set as 100%
Measured Efficacy (%), listed per entry for reference.
Numbers only; they are read as %.

{"columns": ["compound", "data-value"],
 "data": [
  ["CC[C@H]1[C@@H](O)[C@@H]2[C@H](CC[C@]3(C)[C@@H]([C@H](C)CNC(=O)NS(=O)(=O)c4ccc(C5CCCCC5)cc4)CC[C@@H]23)[C@@]2(C)CC[C@@H](O)C[C@@H]12 [Example 113]", 366]
]}

Recorded result, CC[C@H]1[C@@H](O)[C@@H]2[C@H](CC[C@]3(C)[C@@H]([C@H](C)CCNC(=O)NC(C)C)CC[C@@H]23)[C@@]2(C)CC[C@@H](O)C[C@@H]12 [Example 7] , Efficacy (%): 259

Recorded result, CC[C@H]1[C@@H](O)[C@@H]2[C@H](CC[C@]3(C)[C@@H]([C@H](C)CCNS(=O)(=O)CC(=O)O)CC[C@@H]23)[C@@]2(C)CC[C@@H](O)C[C@@H]12 [Example 132] , Efficacy (%): 7

Recorded result, CC[C@H]1[C@@H](O)[C@@H]2[C@H](CC[C@]3(C)[C@@H]([C@H](C)CCNC(=O)NS(=O)(=O)c4ccc(C(=O)O)cc4)CC[C@@H]23)[C@@]2(C)CC[C@@H](O)C[C@@H]12 [Example 120] , Efficacy (%): 198

Recorded result, CC[C@H]1[C@@H](O)[C@@H]2[C@H](CC[C@]3(C)[C@@H]([C@H](C)CCNC(=O)NS(=O)(=O)N4CCCCCC4)CC[C@@H]23)[C@@]2(C)CC[C@@H](O)C[C@@H]12 [Example 47] , Efficacy (%): 361

Recorded result, CC[C@H]1[C@@H](O)[C@@H]2[C@H](CC[C@]3(C)[C@@H]([C@H](C)CCNC(=O)NS(=O)(=O)N4C[C@H](C)C[C@H](C)C4)CC[C@@H]23)[C@@]2(C)CC[C@@H](O)C[C@@H]12 [Example 97] , Efficacy (%): 308

Recorded result, CC[C@H]1[C@@H](O)[C@@H]2[C@H](CC[C@]3(C)[C@@H]([C@H](C)CCNC(=O)NS(=O)(=O)c4ccc(OC(F)(F)F)cc4)CC[C@@H]23)[C@@]2(C)CC[C@@H](O)C[C@@H]12 [Example 2] , Efficacy (%): 300

Recorded result, CC[C@H]1[C@@H](O)[C@@H]2[C@H](CC[C@]3(C)[C@@H]([C@H](C)CCNC(=O)NS(=O)(=O)c4ccc5c(c4)OCCO5)CC[C@@H]23)[C@@]2(C)CC[C@@H](O)C[C@@H]12 [Example 58] , Efficacy (%): 307

Recorded result, CC[C@H]1[C@@H](O)[C@@H]2[C@H](CC[C@]3(C)[C@@H]([C@H](C)CCNC(=O)NS(=O)(=O)c4ccc(C(F)(F)F)cc4)CC[C@@H]23)[C@@]2(C)CC[C@@H](O)C[C@@H]12 [Example 14] , Efficacy (%): 295

The reported measurements were obtained from patent US10208081B2.
